- measurement.target: SMARCA2 (Homo sapiens)
- Construct: endogenous in cells
- Sequence (P51531 whole entry, species assumed): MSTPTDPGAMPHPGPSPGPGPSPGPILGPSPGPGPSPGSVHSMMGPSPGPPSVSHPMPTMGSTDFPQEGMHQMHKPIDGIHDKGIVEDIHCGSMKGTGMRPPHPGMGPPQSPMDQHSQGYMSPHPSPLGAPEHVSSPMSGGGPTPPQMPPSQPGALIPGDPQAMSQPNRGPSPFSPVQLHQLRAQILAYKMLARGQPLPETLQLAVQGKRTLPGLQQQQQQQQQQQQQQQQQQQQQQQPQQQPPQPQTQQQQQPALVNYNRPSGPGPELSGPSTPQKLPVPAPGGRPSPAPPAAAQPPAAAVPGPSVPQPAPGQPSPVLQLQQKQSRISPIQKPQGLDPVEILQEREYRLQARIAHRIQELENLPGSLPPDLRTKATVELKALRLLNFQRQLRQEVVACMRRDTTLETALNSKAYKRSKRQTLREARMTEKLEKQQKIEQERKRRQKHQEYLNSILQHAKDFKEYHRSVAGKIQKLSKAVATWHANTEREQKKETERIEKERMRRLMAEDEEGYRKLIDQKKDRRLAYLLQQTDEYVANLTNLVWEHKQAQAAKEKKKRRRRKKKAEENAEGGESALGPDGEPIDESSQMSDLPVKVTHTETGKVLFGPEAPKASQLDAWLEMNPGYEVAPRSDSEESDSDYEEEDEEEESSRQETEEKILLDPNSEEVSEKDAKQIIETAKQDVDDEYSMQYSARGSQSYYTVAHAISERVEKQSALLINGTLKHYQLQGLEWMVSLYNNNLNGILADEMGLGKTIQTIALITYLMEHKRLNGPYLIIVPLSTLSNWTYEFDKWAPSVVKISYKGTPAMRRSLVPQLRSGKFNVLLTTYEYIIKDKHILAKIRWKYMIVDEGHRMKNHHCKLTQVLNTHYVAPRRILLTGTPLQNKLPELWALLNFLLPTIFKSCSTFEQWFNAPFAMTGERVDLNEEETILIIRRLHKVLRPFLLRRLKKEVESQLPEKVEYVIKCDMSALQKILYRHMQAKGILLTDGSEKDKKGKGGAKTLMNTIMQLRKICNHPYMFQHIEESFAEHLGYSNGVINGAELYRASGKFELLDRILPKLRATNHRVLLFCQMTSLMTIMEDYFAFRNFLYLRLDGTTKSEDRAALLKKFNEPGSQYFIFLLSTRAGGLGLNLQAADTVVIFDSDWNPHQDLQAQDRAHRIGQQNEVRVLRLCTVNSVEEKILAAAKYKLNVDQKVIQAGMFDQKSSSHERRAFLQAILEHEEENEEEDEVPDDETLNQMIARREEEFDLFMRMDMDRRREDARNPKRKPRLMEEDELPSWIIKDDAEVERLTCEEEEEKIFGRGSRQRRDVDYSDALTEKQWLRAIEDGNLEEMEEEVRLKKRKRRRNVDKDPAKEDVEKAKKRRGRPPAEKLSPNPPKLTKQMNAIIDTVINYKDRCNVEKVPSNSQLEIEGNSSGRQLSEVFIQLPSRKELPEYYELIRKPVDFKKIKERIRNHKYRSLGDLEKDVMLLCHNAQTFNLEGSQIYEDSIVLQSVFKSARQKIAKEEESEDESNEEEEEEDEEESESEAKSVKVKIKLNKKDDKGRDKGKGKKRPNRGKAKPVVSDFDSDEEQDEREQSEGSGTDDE
- assay.comment: SMARCA2 Cellular Degradation Assay (Western blot analysis on Jess platform)
- Format: cell-based
- conditions: ratio DC50 SMARCA4 / DC50 SMARCA2
measurement.name: Fold Selectivity SMARCA4/2

[[record]]
compound = "O=C1CCC(c2ccc(C3CCN(CC(=O)N4CC5(C4)CN(C(=O)C4(Oc6ccccc6Cl)CCN(c6cnnc(-c7ccccc7O)c6)CC4)C5)CC3)cc2)C(=O)N1 (racemic)"
measurement_name = "Fold Selectivity SMARCA4/2"
obs_value = 9


P: CN(C(=O)C1(c2ccc(F)cc2)CCN(c2cnnc(-c3ccccc3O)c2)CC1)C1CCN(CCC2CCN(c3ccc(C4CCC(=O)NC4=O)cc3)CC2)CC1 (racemic)
Q: C[C@@H](C1CCN(c2ccc([C@H]3CCC(=O)NC3=O)cn2)CC1)N1CC2(CN(C(=O)C3(c4ccccc4)CCN(c4cnnc(-c5ccccc5O)c4)CC3)C2)C1 (racemic)
(Q) Which shows the larger Fold Selectivity SMARCA4/2 value: P or Q ? Please reply using the label of the selected record.
(A) P
(P: 1138, Q: 5)

---

- measurement.target: SMARCA4 (Homo sapiens, UniProt P51532)
- Construct: endogenous in cells
- Sequence (P51532 whole entry, species assumed): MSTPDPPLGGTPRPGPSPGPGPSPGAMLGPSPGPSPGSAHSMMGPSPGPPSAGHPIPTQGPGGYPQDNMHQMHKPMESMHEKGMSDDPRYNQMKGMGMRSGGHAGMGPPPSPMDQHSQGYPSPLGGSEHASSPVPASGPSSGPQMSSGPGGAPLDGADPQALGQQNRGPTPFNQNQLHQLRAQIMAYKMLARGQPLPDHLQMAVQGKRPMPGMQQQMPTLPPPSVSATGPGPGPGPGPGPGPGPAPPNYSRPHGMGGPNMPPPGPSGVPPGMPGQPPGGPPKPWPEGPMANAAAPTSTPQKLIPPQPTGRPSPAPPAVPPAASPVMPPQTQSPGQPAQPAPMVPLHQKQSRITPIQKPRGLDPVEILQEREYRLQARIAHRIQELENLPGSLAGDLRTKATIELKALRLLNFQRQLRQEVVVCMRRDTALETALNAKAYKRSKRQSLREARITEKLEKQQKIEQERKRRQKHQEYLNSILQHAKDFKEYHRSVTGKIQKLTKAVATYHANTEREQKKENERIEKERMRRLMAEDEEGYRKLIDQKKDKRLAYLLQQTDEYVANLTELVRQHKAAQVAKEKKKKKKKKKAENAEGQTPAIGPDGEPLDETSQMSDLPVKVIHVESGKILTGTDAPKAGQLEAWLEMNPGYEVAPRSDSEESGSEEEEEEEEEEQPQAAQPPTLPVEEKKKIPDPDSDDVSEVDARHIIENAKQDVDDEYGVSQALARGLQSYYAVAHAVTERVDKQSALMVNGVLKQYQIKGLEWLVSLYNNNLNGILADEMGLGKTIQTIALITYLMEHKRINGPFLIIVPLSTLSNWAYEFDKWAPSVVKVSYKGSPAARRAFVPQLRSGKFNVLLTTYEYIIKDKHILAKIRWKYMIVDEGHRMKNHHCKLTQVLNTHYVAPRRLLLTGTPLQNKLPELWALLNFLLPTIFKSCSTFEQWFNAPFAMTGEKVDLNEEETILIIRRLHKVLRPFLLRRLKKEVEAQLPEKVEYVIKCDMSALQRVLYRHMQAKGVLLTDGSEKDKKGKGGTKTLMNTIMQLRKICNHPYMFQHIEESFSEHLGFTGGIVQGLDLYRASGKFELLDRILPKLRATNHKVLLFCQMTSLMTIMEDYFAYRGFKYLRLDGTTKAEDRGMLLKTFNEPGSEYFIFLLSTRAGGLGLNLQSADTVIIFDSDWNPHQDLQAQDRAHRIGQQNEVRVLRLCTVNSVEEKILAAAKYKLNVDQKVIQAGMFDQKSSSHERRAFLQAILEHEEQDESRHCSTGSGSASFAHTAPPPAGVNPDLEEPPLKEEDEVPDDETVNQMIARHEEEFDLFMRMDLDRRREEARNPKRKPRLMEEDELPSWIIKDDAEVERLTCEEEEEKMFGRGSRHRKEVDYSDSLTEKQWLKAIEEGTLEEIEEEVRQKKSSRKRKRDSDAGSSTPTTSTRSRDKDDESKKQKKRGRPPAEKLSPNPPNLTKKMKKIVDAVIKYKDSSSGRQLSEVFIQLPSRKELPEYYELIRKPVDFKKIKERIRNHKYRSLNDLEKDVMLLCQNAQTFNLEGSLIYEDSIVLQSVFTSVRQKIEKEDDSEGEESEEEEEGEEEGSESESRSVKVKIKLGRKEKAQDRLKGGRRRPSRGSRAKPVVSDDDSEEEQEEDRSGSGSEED
- assay.comment: Cellular degradation assay, SMARCA4 (Table 1)
- Type: cell-based
measurement.name: Dmax (%)

[[record]]
molecule = "Cc1cc(C2(C(=O)N(C)C3CCN(CCC4CCN(c5ccc(C6CCC(=O)NC6=O)c(F)c5)CC4)CC3)CCN(c3cnnc(-c4ccccc4O)c3)CC2)on1 (racemic)"
measurement_target = "SMARCA4 (Homo sapiens, UniProt P51532)"
obs_value = 35.7


A: O=C1CC[C@H](c2ccc(N3CCC(CN4CCC(NC(=O)C5(C6CCOCC6)CCN(c6cnnc(-c7ccccc7O)c6)CC5)CC45CCC5)CC3)cc2)C(=O)N1 (stereo partly drawn)
B: O=C1CCC(Nc2ccc(C3CCN(CC4CCC45CN(C(=O)C4(c6ccccc6)CCN(c6cnnc(-c7ccccc7O)c6)CC4)C5)CC3)cc2)C(=O)N1 (racemic)
(Q) Which has the higher Dmax, A or B ? Response format: the label of the selected entry.
(A) B
(B: 54.5%, A: 32.4%)

---

- measurement.target: SMARCA4 (Homo sapiens, UniProt P51532)
- Construct: endogenous in cells
- assay.comment: Cellular degradation assay, SMARCA4 (Table 1)
- Type: cell-based
measurement.name: DC50 (nM)

[[record]]
compound = "O=C1CC[C@H](c2ccc(N3CCC(CN4CC5(CCN(C(=O)C6(c7ccccc7)CCN(c7cnnc(-c8ccccc8O)c7)CC6)C5)C4)CC3)cc2)C(=O)N1 [Example 16]"
measurement_name = "DC50"
obs_value = 5020


I: Cc1ccnn1C1(C(=O)N(C)C2CCN(CCC3CCN(c4cccc5c4n(C)c(=O)n5C4CCC(=O)NC4=O)CC3)CC2)CCN(c2cnnc(-c3ccccc3O)c2)CC1 (racemic) [Example 61]
II: O=C1CC[C@H](c2ccc(N3CCC(CCN4CCC(S(=O)(=O)NCC5(c6ccccc6)CCN(c6cnnc(-c7ccccc7O)c6)CC5)CC4)CC3)cc2)C(=O)N1 (racemic) [Example 118]
III: COC1(C(=O)N(C)C2CCN(C(=O)CN3CCC(c4ccc([C@@H]5CCC(=O)NC5=O)cc4)CC3)CC2)CCN(c2cnnc(-c3ccccc3O)c2)CC1 (racemic) [Example 111]
IV: CN(C(=O)C1(c2ccccc2)CCN(c2cnnc(-c3ccccc3O)c2)CC1)C1CCN(CCC2CCN(c3ccc([C@H]4CCC(=O)NC4=O)cc3)CC2)CC1 [Example 192]
(Q) Order the records so the highest DC50 appears first and the lowest last. Provide your answer as the labels ordered per the instruction.
(A) III, IV, II, I
(III: 210 nM, IV: 128 nM, II: 35.5 nM, I: 3.49 nM)

---

- measurement.target: SMARCA4 (Homo sapiens)
- Construct: endogenous in cells
- assay.comment: Cellular degradation assay, SMARCA4 (Table 1)
- Format: cell-based
measurement.name: Dmax (%)

[[record]]
compound = "O=C1CC[C@@H](c2ccc(C3CCN(CC(=O)N4C[C@@H]5[C@H](C4)[C@H]5C(=O)NCC4(c5ccccc5)CCN(c5cnnc(-c6ccccc6O)c5)CC4)CC3)cc2)C(=O)N1 (racemic) [Example 73]"
obs_value = 21

[[record]]
compound = "CN(CC1(c2ccccc2)CCN(c2cnnc(-c3ccccc3O)c2)CC1)C(=O)C1CCN(CCC2CCN(c3ccc([C@H]4CCC(=O)NC4=O)cc3)CC2)C2(CCC2)C1 (mixture of isomers) [Example 146]"
obs_value = 72.8

[[record]]
compound = "CC1(NC(=O)C2(c3ccccc3)CCN(c3cnnc(-c4ccccc4O)c3)CC2)CCN(CC2CCN(c3ccc(N[C@@H]4CCC(=O)NC4=O)cn3)CC2)CC1 (racemic) [Example 99]"
obs_value = 46.9

[[record]]
compound = "CN(C(=O)C1(OC2CC2)CCN(c2cnnc(-c3ccccc3O)c2)CC1)C1CCN(CCC2CCN(c3ccc([C@H]4CCC(=O)NC4=O)c(F)c3)CC2)CC1 (racemic) [Example 70]"
obs_value = 35.1

[[record]]
compound = "O=C1CC[C@H](c2ccc(N3CCC(CNC4CC5CCCC(C4)C5NC(=O)C4(c5ccccc5)CCN(c5cnnc(-c6ccccc6O)c5)CC4)CC3)cc2)C(=O)N1 (some centres unmarked) [Example 49]"
obs_value = 59.8

[[record]]
compound = "CN(C(=O)C1(OC2CCCCC2)CCN(c2cnnc(-c3ccccc3O)c2)CC1)C1CCN(C(=O)CN2CCC(c3ccc([C@@H]4CCC(=O)NC4=O)cc3)CC2)CC1 (racemic) [Example 117]"
obs_value = 62.4

[[record]]
compound = "O=C1CCC(c2ccc(N3CCC4(CC3)COC(CN3CC5(CCN(C(=O)C6(c7ccccc7)CCN(c7cnnc(-c8ccccc8O)c7)CC6)CC5)C3)C4)cc2)C(=O)N1 (racemic) [Example 127]"
obs_value = 56.1

[[record]]
compound = "O=C1CCC(c2ccc(N3CCC(F)(CCN4CC5(C4)CN(C(=O)C4(c6ccccc6)CCN(c6cnnc(-c7ccccc7O)c6)CC4)C5)CC3)cc2)C(=O)N1 (racemic) [Example 122]"
obs_value = 34.8


P: CN(C(=O)C1(c2ccccc2)CCN(c2cnnc(-c3ccccc3O)c2)CC1)C1CCN(CCC2CCN(c3ccc([C@H]4CCC(=O)NC4=O)cc3)CC2)CC1 [Example 192]
Q: C[C@@H](C1CCN(c2ccc([C@H]3CCC(=O)NC3=O)cn2)CC1)N1CC2(CN(C(=O)C3(c4ccccc4)CCN(c4cnnc(-c5ccccc5O)c4)CC3)C2)C1 (racemic) [Example 141]
(Q) Please compare: P and Q . Report which one has the smaller Dmax value. Lab note: record the label of whichever item you select.
(A) P
(P: 46.4%, Q: 71.5%)

a: CN(C(=O)C1(c2cc3ccccn3n2)CCN(c2cnnc(-c3ccccc3O)c2)CC1)C1CCN(CCC2CCN(c3ccc(C4CCC(=O)NC4=O)cc3)CC2)CC1 (racemic) [Example 77]
b: O=C1CCC(NC(=O)c2cc(N3CCN(C(=O)C4(c5ccccc5)CCN(c5cnnc(-c6ccccc6O)c5)CC4)CC3)ccn2)C(=O)N1 (racemic) [Example 1]
c: O=C1CCC(c2ccc(N3CCC(CN4CC5(C4)CN(C(=O)C4(c6ccccc6)CCN(c6cnnc(-c7ccccc7O)c6)CC4)C5)CC3)c(F)c2F)C(=O)N1 (racemic) [Example 138]
(Q) I would appreciate it if you could sort these 3 compounds by Dmax, starting from the smallest number. Dear reader, please state the labels in the requested order.
(A) b, a, c
(b: 13%, a: 44.2%, c: 67.1%)

A: COc1ccccc1C1(C(=O)N2CC3(C2)CN(C2COC4(CCN(c5ccc([C@H]6CCC(=O)NC6=O)cc5)CC4)C2)C3)CCN(c2cnnc(-c3ccccc3O)c2)CC1 (mixture of isomers) [Example 106]
B: O=C1CCC(c2ccc(N3CCC(CCN4CC5(CCCN(C(=O)C6(c7ccccc7)CCN(c7cnnc(-c8ccccc8O)c7)CC6)C5)C4)CC3)cc2)C(=O)N1 (racemic) [Example 167]
C: CN(C(=O)CN1CCN(c2ccc([C@H]3CCC(=O)NC3=O)cc2)CC1)[C@H]1CC[C@H](NC(=O)C2(Oc3ccccc3)CCN(c3cnnc(-c4ccccc4O)c3)CC2)CC1 (racemic) [Example 173]
(Q) Given 3 compounds, produce a descending ranking by Dmax. Answer with the labels in sequence, matching the requested order.
(A) A, C, B
(A: 59.4%, C: 39.8%, B: 23.7%)

A: CN(C(=O)C1(c2ccnn2C)CCN(c2cnnc(-c3ccccc3O)c2)CC1)C1CCN(CCC2CCN(c3cccc4c3n(C)c(=O)n4C3CCC(=O)NC3=O)CC2)CC1 (racemic) [Example 62]
B: CN(C(=O)C1(Oc2ccccc2)CCN(c2cnnc(-c3ccccc3O)c2)CC1)C1CCN(CC2CCN(c3ccc([C@H]4CCC(=O)NC4=O)cc3)CC2)C2(CC2)C1 (mixture of isomers) [Example 168]
(Q) Select one: A or B . Criterion: greater recorded Dmax. Which one? Tell me its label.
(A) B

I: O=C1CCC(c2c(F)cc(N3CCC(CN4CCC5(CC4)CN(C(=O)C4(c6ccccc6)CCN(c6cnnc(-c7ccccc7O)c6)CC4)C5)CC3)cc2F)C(=O)N1 (racemic) [Example 193]
II: O=C1CC[C@H](c2ccc(N3CCC(CN4CC[C@@H](NC(=O)C5(c6ccccc6)CCN(c6cnnc(-c7ccccc7O)c6)CC5)CC45CCC5)CC3)cc2)C(=O)N1 [Example 190]
(Q) // returns I or II , whichever has the lower Dmax Lab log: write the label of the selected item as the result.
(A) II

Where do the numbers come from? From patent US20250051344A1.
